Reference source: patent US20230293535A1

test system: WT EGFR cell line A-431; assay: Cell proliferation, WT EGFR A431 (CellTiter-Glo, 72 h); type: cell-based; conditions: Homo sapiens, A-431, 72 h, A431, 72 h proliferation; read-out: EGFR WT A431 GI50;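 note: proliferation from a luminescent ATP viability signal, expressed as 100 × (treated minus time-zero plate) over (DMSO control minus time-zero plate), cells grown with 10% FBS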
Kindly supply the reported GI50 values for the records listed here.
Give a bare numeral; the unit µM is implied.

q: Give the reported GI50 for C=CC(=O)Nc1cc(Nc2ncnc(Nc3cc(F)c(F)cc3C(C)(C)O)n2)c(OC)cc1N1CC[C@@H]2CN(C)C[C@@H]21 (system: WT EGFR cell line A-431).
a: 0.0132

q: Give the reported GI50 for C=CC(=O)Nc1cc(Nc2ncc(Cl)c(Nc3cc(Cl)c(F)cc3C(C)(C)O)n2)c(OC)cc1N(C)CCN(C)C (system: WT EGFR cell line A-431).
a: 0.0215

q: Give the reported GI50 for C=CC(=O)Nc1cc(Nc2nccc(Nc3cc(Cl)c(F)cc3C(C)(C)O)n2)c(OC)cc1N1C[C@@H](C)C[C@@H]1CN(C)C (system: WT EGFR cell line A-431).
a: 0.0315

q: Give the reported GI50 for C=CC(=O)Nc1cc(Nc2ncnc(Nc3cc(Cl)c(F)cc3C(C)(C)O)n2)c(OC)cc1N1CC[C@@H]2CN(C)C[C@@H]21 (system: WT EGFR cell line A-431).
a: 0.0212
